Just for reference, PubChem BioAssay (NCI) is where these values come from.

# TEST SUMMARY: NCI Yeast Anticancer Drug Screen. Data for the cln2 rad14 strain (AID 165);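 note: 0% = growth equal to vehicle treated cultures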
# MEASUREMENT CONTEXT: S. cerevisiae cln2 rad14 strain, at 5.0 µM (retest, dose inferred, filed as 0.5), hits give high values
Compounds without any hit were thinned out: in the full panel of roughly 79,000, 15% have a hit.
Kind request: treat 30% as inclusive, so growth inhibition at 30% or higher is class 1, anything lower is class 0.

COMPOUND: Clc1ccc2[nH]c(-c3ccccc3)c(-c3ccccn3)c2c1
DISCRETE LABEL: class 1
//
COMPOUND: CCN(C(=O)O)c1ccc(/C=C/c2ccnc3ccccc23)cc1
DISCRETE LABEL: class 0
//
COMPOUND: [N-]=[N+]=Nc1c(Cc2ccccc2)c(=O)oc2ccccc12
DISCRETE LABEL: class 0
//
COMPOUND: CC(C)(C)C1=NC(=S)SC2=NC(=O)C3(NN21)c1ccccc1-c1ccccc13
DISCRETE LABEL: class 0
//
COMPOUND: COC1(CO)C(=O)N(C)CC(=O)N1C (configuration not stated)
DISCRETE LABEL: class 0
//
COMPOUND: CCS(=O)(=O)/C=C(\C#Cc1ccccc1)c1ccccc1
DISCRETE LABEL: class 0
//
COMPOUND: COc1ccc(CC[N+]2(C)COc3cc4oc(=O)cc(C)c4cc3C2)cc1OC (configuration not stated)
DISCRETE LABEL: class 0
//
COMPOUND: NC(=O)/C(=N\NC(=O)c1cc2ccccc2cc1O)C1C(=O)N(c2ccccc2)N=C1N (configuration not stated)
DISCRETE LABEL: class 0
//
COMPOUND: CCCCCc1ccc2cc(C(=O)O)[nH]c2c1
DISCRETE LABEL: class 0
//
COMPOUND: Nc1c(-c2c(Cl)cccc2Cl)[n+]([O-])c2ccccc2[n+]1[O-]
DISCRETE LABEL: class 0
//
COMPOUND: CN(C)CC(CN(C)C)C(=O)c1ccc(Oc2ccccc2)cc1
DISCRETE LABEL: class 1
//
COMPOUND: NC(=S)N/N=C\c1nccc2c(C(F)(F)C(F)(F)C(F)(F)F)cccc12
DISCRETE LABEL: class 0
//
COMPOUND: NC(=O)/C=C/C(=O)c1c(Cl)cccc1Cl
DISCRETE LABEL: class 1
//
COMPOUND: O=C(NCCN1CCN2Cc3[nH]c4ccccc4c3CC2C1)c1ccc(Cl)cc1 (configuration not stated)
DISCRETE LABEL: class 0
//
COMPOUND: COc1ccc(C2=C(Cl)C(=O)N(c3ccc(OC)cc3OC)C(=O)C2(Cl)Cl)cc1
DISCRETE LABEL: class 0
//
COMPOUND: CN(C)CC/C(=N\Nc1ccc(Cl)cc1)c1ccccc1
DISCRETE LABEL: class 1
//
COMPOUND: C=C1C(=O)O[C@H]2[C@H](OC(C)=O)[C@@H](C)CCC/C(C)=C/CC[C@@]3(C)O[C@@H]3C[C@@H]12
DISCRETE LABEL: class 0
//
COMPOUND: CC(CN(CC(=O)O)CC(=O)O)N(CC(=O)O)CC(=O)O.[Cl][Pd][Cl] (configuration not stated)
DISCRETE LABEL: class 0
//
COMPOUND: O=C(O)CCCc1ccc2c(c1Br)C=CC2
DISCRETE LABEL: class 0
//
COMPOUND: CC(SCc1ccccc1)C(=O)O (configuration not stated)
DISCRETE LABEL: class 0
//
COMPOUND: O=C(NCCCNCCNC(=O)c1cc(-c2ccccc2)nc2ccccc12)c1cc(-c2ccccc2)nc2ccccc12
DISCRETE LABEL: class 0

* * *

# TEST SUMMARY: NCI Yeast Anticancer Drug Screen. Data for the rad50 strain (AID 155);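 note: 0% = growth of vehicle-only cultures of the same strain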
# MEASUREMENT CONTEXT: S. cerevisiae rad50 strain growth inhibition; at 50.0 µM; hits give high values
Compounds without any hit were thinned out: in the full panel of roughly 79,000, 15% have a hit.
Kind request: treat 90% as inclusive, so growth inhibition at 90% or higher is True, anything lower is False.

COMPOUND: O=C(O)/C(=C\c1ccc(F)cc1)c1ccccc1
DISCRETE LABEL: False
--
COMPOUND: O=[N+]([O-])c1ccc2c(c1)Cc1cc(O)c(I)cc1-2
DISCRETE LABEL: True
--
COMPOUND: O=C1SCCN1/N=C/c1ccc([N+](=O)[O-])o1
DISCRETE LABEL: False
--
COMPOUND: Cc1cc2cc3c(c(C(=O)O)c2o1)C(=O)c1ccc2ccccc2c1C3
DISCRETE LABEL: True
--
COMPOUND: COc1ccc(CC[N+]2(C)COc3cc4oc(=O)cc(C)c4cc3C2)cc1OC (stereo unspecified)
DISCRETE LABEL: False
--
COMPOUND: CC(=O)ON=C1C=CC(=C(C#N)c2ccccc2)C=C1
DISCRETE LABEL: True
--
COMPOUND: CC(C)(C)C(=O)/C=C/c1ccc2ccccc2n1
DISCRETE LABEL: False
--
COMPOUND: N#CC(C#N)=C(c1ccccc1)c1ccccc1
DISCRETE LABEL: True
--
COMPOUND: CC(=O)c1ccc(Br)cc1NC1=CC(=O)c2ncccc2C1=O
DISCRETE LABEL: False
--
COMPOUND: Nc1c(/C=C/c2cc3cc(C4=NCCN4)ccc3o2)[nH]c2cc(C3=NCCN3)ccc12
DISCRETE LABEL: True

* * *

# TEST SUMMARY: NCI Yeast Anticancer Drug Screen. Data for the mlh1 rad18 strain (AID 175)
# MEASUREMENT CONTEXT: S. cerevisiae mlh1 rad18 strain growth inhibition; at 50.0 µM
The panel holds about 79,000 compounds, 15% with a hit somewhere; the sample as a whole holds those more often. Active and inactive are the calls of the source. No stated cut-off is given here; in the data, active means growth inhibition above about 70%; inactive means the rest.
Labels: active, inactive

COMPOUND: O=C(c1cccc(Cl)c1)c1ccc2ccccc2c1C(=O)O
DISCRETE LABEL: inactive

COMPOUND: CCOC(=O)C(CO)c1nc2c([nH]c1=O)c(=O)n(C)c(=O)n2C (configuration not stated)
DISCRETE LABEL: active

COMPOUND: C=C1CC(c2ccc(OCCCN3C(=O)c4ccccc4C3=O)c(OC)c2)OC1=O (configuration not stated)
DISCRETE LABEL: active

COMPOUND: CC(=O)ON=C1C=CC(=C(C#N)c2ccccc2)C=C1
DISCRETE LABEL: active

COMPOUND: S=C1Nc2cnc3ccccc3c2SC1c1ccccc1 (configuration not stated)
DISCRETE LABEL: active

COMPOUND: Cc1ccc(S(=O)(=O)Oc2ccc3oc4c(CO)ccc(NCCN(C)C)c4c(=O)c3c2)cc1
DISCRETE LABEL: inactive

COMPOUND: O=C(Nc1ccccc1)OCCc1ccc(Br)cc1
DISCRETE LABEL: inactive

* * *

Below, each entry is listed alongside its reported growth inhibition.
# TEST SUMMARY: NCI Yeast Anticancer Drug Screen. Data for the mlh1 rad18 strain (AID 175)
# MEASUREMENT CONTEXT: S. cerevisiae mlh1 rad18 strain growth inhibition; at 50.0 µM (retest, dose inferred, filed as 5.0); hits give high values
# Experimental: Growth inhibition of yeast strains with defined genetic alterations is measured as a screen for potential anti-cancer activity. Selected strains with alterations in DNA damage repair or cell cycle control were exposed to compounds and growth inhibition was measured relative to vehicle treated controls. The strain used in this assay is mlh1 rad18
Compounds without any hit were thinned out: in the full panel of roughly 79,000, 15% have a hit.

MOLECULE: Cc1ccc(NC(=O)c2cc3ccccc3c(N=Nc3cc(S(=O)(=O)O)ccc3O)c2O)c(C)c1
growth inhibition, %: 87
--
MOLECULE: C=C1CC(C)(COc2ccc3c(C)c(C)c(=O)oc3c2C)OC1=O (stereo not given)
growth inhibition, %: 94
--
MOLECULE: Nc1nc(N)c2c(ccc3c2ccn3Cc2cccc([N+](=O)[O-])c2)n1
growth inhibition, %: 46
--
MOLECULE: O=S(=O)(O)c1ccc(O)c2cc(Nc3ccccc3)ccc12
growth inhibition, %: -23
--
MOLECULE: Cn1cc(NC(=O)Nc2cc(C(=O)Nc3cc(C(=O)Nc4ccc5cc(S(=O)(=O)O)cc(S(=O)(=O)O)c5c4)n(C)c3)n(C)c2)cc1C(=O)Nc1cc(C(=O)Nc2ccc3cc(S(=O)(=O)O)cc(S(=O)(=O)O)c3c2)n(C)c1
growth inhibition, %: 98
--
MOLECULE: CN(C)CCSc1cc(-c2ccccc2)c2ccccc2n1
growth inhibition, %: 92
--
MOLECULE: Cc1ccccc1[P+](C)(c1ccccc1C)c1ccccc1C
growth inhibition, %: 84
--
MOLECULE: COc1ccc(CC[N+]2(C)COc3cc4oc(=O)cc(C)c4cc3C2)cc1OC (stereo not given)
growth inhibition, %: 7
--
MOLECULE: COC(CCC[N+](C)(C)C)CC[N+](C)(C)C (stereo not given)
growth inhibition, %: 81
--
MOLECULE: CNC(=S)N/N=C/c1nccc(-c2ccccc2)c1C
growth inhibition, %: 93
